Overview of reported Kd across a group of binders:
Molecular target: T1, LAMP1-Tn peptide Biotin-CEQDRPSPTTAPPAPPSPSP (human, N-terminal biotin; O-linked GalNAc on the serine at position 7 and the threonines at positions 9 and 10)
T1 construct: Synthetic 20-mer glycopeptide made by FMOC synthesis; also called LAMP1 glycopeptide; glycosylated LAMP1 peptide
T1 peptide: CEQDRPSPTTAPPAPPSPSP
Experiment: BLI (Octet), LAMP1-GP on biosensor
All answers are understood in nM, so give the number only.

{"BINDER": "13C3-HV-72-A/13C3 KV2-A (antibody, V domains shown, Humanized 13C3; also called HV-72A/KV2A; humanized 13C3 candidate 2) VH: EVQLVESGGGLVQPGGSLRLSCAASGFTFSDAWMDWVRHAPGKGLEWVAELRSKAFNHATYYAESVKGRFTISRDDSKNSVYLQMNSLKTEDTAVYYCTPNWDEGFAYWGQGTLVTVSS VL: DVVMTQSPLSLPVTLGQPASISCRSSQSLVHSNGNTYLHWYQQRPGQSPRLLINKVSNRFSGVPDRFSGSGSGTDFTLKISRVEAEDVGVYFCSQSTHVPRTFGGGTKVEIK", "UNIT_STRING": "nM", "REPORTED_VALUE": 3.1}
{"BINDER": "13C3-HV-23-C/13C3 KV2-A (antibody, V domains shown, Humanized 13C3; also called humanized 13C3 candidate 5) VH: EVQLLESGGGLVQPGGSLRLSCAASGFTFSDAWMDWVRQAPGKGLEWVSEIRSSAFNHATYYAESVKGRFTISRDDSKNTLYLQMNSLRAEDTAVYYCTPNWDEGFAYWGQGTLVTVSS VL: DVVMTQSPLSLPVTLGQPASISCRSSQSLVHSNGNTYLHWYQQRPGQSPRLLINKVSNRFSGVPDRFSGSGSGTDFTLKISRVEAEDVGVYFCSQSTHVPRTFGGGTKVEIK", "UNIT_STRING": "nM", "REPORTED_VALUE": 23.5}
{"BINDER": "13C3-HV-72-B/13C3 KV2-A (antibody, V domains shown, Humanized 13C3; also called humanized 13C3 candidate 4) VH: EVQLVESGGGLVQPGGSLRLSCAASGFTFSDAWMDWVRQAPGKGLEWVGELRSKAFNHATYYAESVKGRFTISRDDSKNSLYLQMNSLKTEDTAVYYCTPNWDEGFAYWGQGTLVTVSS VL: DVVMTQSPLSLPVTLGQPASISCRSSQSLVHSNGNTYLHWYQQRPGQSPRLLINKVSNRFSGVPDRFSGSGSGTDFTLKISRVEAEDVGVYFCSQSTHVPRTFGGGTKVEIK", "UNIT_STRING": "nM", "REPORTED_VALUE": 8.2}

Given the entry 13C3-HV-23-B/13C3 KV2-A (antibody, V domains shown, Humanized 13C3; also called HV23B/KV2A; humanized 13C3 candidate 3) VH: EVQLLESGGGLVQPGGSLRLSCAASGFTFSDAWMDWVRQAPGKGLEWVSELRSKAFNHATYYAESVKGRFTISRDDSKNTLYLQMNSLRAEDTAVYYCTPNWDEGFAYWGQGTLVTVSS VL: DVVMTQSPLSLPVTLGQPASISCRSSQSLVHSNGNTYLHWYQQRPGQSPRLLINKVSNRFSGVPDRFSGSGSGTDFTLKISRVEAEDVGVYFCSQSTHVPRTFGGGTKVEIK , report its measured Kd.
0.85
